target: HSV polymerase (Human herpesvirus 1)
Sequence (P04293 whole entry): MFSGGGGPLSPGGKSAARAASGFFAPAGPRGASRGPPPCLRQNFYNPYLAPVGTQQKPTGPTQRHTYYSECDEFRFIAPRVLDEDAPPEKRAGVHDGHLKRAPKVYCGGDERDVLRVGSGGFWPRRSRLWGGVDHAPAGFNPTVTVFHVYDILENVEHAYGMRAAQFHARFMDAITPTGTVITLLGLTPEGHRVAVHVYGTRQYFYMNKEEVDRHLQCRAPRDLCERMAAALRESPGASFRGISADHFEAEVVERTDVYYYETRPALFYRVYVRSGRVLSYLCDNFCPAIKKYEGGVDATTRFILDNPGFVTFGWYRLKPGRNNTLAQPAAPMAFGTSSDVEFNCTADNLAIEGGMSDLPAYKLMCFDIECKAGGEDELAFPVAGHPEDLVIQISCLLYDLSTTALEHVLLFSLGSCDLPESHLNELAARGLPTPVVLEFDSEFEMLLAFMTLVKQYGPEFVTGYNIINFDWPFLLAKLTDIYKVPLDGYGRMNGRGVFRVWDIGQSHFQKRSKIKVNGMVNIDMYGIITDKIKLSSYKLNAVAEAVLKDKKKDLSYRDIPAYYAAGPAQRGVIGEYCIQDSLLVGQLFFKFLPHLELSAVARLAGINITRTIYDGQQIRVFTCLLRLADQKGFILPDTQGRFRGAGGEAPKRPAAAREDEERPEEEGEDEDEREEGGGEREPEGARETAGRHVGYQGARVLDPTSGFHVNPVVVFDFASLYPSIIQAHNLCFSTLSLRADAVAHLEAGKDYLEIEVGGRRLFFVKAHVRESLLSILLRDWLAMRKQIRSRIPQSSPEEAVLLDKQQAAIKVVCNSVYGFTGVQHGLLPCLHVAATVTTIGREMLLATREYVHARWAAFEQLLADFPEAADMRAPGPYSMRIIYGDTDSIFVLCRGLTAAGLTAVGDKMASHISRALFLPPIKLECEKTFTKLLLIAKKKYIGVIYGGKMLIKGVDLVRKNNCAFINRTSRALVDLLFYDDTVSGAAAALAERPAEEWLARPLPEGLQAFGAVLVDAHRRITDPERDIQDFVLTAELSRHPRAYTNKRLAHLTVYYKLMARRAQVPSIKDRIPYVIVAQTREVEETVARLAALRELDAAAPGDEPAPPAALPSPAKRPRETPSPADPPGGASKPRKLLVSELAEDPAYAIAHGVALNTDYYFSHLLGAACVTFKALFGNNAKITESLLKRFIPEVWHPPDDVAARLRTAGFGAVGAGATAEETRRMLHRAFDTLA
pIC50: −log10 of the molar value.
Measured Attribute: pIC50

// solved cases for pIC50 follow
CN(Cc1cc2c(=O)c(C(=O)NCc3ccc(Cl)cc3)cn(C)c2s1)C[C@@H](O)c1ccccc1	6.40
CN(Cc1cc2c(=O)c(C(=O)NCc3ccc(Cl)cc3)cn(C)c2s1)C[C@@H](O)c1ccc(N(C)C)cc1 (single isomer, unassigned)	6.21
COc1cccc([C@H](O)CN(C)Cc2cc3c(=O)c(C(=O)NCc4ccc(Cl)cc4)cn(C)c3s2)c1 (single isomer, unassigned)	6.80
CN(Cc1cc2c(=O)c(C(=O)NCc3ccc(Cl)cc3)cn(C)c2s1)C[C@@H](O)c1cccc(C#N)c1 (single isomer, unassigned)	6.68

1 = CN(Cc1cc2c(=O)c(C(=O)NCc3ccc(Cl)cc3)cn(C)c2s1)C[C@@H](O)c1ccc(CO)cc1 (single isomer, unassigned)
2 = CN(Cc1cc2c(=O)c(C(=O)NCc3ccc(Cl)cc3)cn(C)c2s1)C[C@@H](O)c1ccc([N+](=O)[O-])cc1 (single isomer, unassigned)
3 = CN(Cc1cc2c(=O)c(C(=O)NCc3ccc(Cl)cc3)cn(C)c2s1)C[C@@H](O)c1ccc(O)cc1
Order these by pIC50, descending, and give the full ranking. To answer, write out the labels according to the requested order.
3, 1, 2

###

molecular target: HCMV polymerase (Human cytomegalovirus, UniProt P08546); construct: made in house; host or cells: recombinant baculovirus-infected SF-9 cells; test: HCMV polymerase scintillation proximity assay; type: biochemical; details: read-out: Polymerase IC50 HCMV
Sequence (P08546 whole entry): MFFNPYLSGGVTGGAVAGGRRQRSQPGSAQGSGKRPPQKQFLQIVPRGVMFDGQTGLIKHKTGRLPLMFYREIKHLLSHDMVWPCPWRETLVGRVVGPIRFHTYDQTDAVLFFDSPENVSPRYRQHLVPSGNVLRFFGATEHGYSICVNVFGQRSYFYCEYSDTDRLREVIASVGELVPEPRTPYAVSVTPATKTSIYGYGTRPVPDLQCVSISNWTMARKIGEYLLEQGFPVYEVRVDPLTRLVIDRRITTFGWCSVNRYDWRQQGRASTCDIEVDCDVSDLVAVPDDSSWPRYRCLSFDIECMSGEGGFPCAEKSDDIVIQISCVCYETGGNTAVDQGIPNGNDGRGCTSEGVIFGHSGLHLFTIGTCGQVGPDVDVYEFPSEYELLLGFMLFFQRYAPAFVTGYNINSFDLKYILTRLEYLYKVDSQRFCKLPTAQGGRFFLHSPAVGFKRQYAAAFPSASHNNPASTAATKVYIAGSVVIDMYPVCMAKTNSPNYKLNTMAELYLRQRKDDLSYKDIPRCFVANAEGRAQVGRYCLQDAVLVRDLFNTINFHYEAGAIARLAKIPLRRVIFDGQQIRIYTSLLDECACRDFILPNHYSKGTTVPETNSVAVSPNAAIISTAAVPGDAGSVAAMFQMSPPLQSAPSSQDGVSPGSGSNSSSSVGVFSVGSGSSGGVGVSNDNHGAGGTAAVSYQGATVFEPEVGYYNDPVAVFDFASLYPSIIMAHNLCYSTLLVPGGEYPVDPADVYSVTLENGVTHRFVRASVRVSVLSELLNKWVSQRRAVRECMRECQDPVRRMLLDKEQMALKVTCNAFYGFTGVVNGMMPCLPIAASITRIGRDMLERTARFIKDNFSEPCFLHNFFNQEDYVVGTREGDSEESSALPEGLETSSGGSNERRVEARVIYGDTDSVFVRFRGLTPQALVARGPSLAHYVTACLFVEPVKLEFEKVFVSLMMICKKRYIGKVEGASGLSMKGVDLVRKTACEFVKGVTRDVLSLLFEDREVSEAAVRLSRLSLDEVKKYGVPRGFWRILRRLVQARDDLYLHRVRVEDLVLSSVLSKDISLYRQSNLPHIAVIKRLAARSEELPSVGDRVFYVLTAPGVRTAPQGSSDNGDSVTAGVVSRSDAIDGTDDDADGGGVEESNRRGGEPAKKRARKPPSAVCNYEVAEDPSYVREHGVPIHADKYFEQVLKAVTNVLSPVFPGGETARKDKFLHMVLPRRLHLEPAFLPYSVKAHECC
Measured Attribute: IC50 (nM)

// solved cases for IC50 follow
CCn1cc(C(=O)NCc2ccc(Cl)cc2)c(=O)c2cc(CN(C)C[C@@H](O)c3ccccc3)sc21	470
COCCn1cc(C(=O)NCc2ccc(Cl)cc2)c(=O)c2cc(CN(C)C[C@@H](O)c3ccccc3)sc21	320
CCCn1cc(C(=O)NCc2ccc(Cl)cc2)c(=O)c2cc(CN(C)C[C@@H](O)c3ccccc3)sc21	620

1 = CN(Cc1cc2c(=O)c(C(=O)NCc3ccc(Cl)cc3)cn(C)c2s1)C[C@@H](O)c1ccc(C#N)cc1 (single isomer, unassigned)
2 = CN(Cc1cc2c(=O)c(C(=O)NCc3ccc(Cl)cc3)cn(CCO)c2s1)C[C@@H](O)c1ccccc1
// which entry reports the smaller IC50, 1 or 2 ? Indicate which entry you chose by stating its label.
1

###

VZV polymerase (Varicella-zoster virus) measurements of IC50, listed per entry.
Sequence (P09252 whole entry): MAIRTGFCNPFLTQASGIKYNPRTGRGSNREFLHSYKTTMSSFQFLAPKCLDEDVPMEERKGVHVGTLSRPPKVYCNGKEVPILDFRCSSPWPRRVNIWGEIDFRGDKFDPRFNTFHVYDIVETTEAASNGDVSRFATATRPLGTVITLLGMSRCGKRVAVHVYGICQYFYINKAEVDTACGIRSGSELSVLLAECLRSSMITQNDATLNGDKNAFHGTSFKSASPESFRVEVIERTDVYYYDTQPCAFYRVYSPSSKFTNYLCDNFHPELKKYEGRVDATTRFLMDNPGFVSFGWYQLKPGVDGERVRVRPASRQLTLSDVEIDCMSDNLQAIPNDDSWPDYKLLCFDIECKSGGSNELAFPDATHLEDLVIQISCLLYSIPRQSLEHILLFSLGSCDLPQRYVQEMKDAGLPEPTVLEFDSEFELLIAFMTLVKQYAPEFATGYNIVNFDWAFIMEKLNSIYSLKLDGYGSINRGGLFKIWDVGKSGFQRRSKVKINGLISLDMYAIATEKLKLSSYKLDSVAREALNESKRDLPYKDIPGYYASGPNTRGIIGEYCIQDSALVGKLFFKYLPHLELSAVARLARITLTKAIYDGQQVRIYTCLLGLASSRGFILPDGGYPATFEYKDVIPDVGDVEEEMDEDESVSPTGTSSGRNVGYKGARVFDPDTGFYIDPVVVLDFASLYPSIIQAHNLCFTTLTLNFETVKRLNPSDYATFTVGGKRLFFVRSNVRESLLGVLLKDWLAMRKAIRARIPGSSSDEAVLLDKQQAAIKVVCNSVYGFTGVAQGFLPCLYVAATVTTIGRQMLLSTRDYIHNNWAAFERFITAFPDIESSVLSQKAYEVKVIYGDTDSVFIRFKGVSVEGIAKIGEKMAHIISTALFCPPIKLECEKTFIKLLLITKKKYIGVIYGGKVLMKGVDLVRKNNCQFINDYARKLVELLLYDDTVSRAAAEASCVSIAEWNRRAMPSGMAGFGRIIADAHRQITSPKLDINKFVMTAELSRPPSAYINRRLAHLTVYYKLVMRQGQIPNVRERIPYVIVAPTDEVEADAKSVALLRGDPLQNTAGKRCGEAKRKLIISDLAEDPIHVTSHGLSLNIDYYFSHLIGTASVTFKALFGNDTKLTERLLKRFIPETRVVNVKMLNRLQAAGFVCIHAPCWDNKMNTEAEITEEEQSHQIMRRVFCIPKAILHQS
Measured Attribute: IC50 (nM)

// solved cases for IC50 follow
CN(Cc1cc2c(=O)c(C(=O)NCc3ccc(Cl)cc3)cn(C)c2s1)C[C@@H](O)c1ccccc1 [Example 2]	200
CN(Cc1cc2c(=O)c(C(=O)NCc3ccc(Cl)cc3)cn(C)c2s1)C[C@@H](O)c1ccc(O)cc1 [Example 1]	80
COc1cccc([C@H](O)CN(C)Cc2cc3c(=O)c(C(=O)NCc4ccc(Cl)cc4)cn(C)c3s2)c1 (single isomer, unassigned) [Example 6]	90
CN(Cc1cc2c(=O)c(C(=O)NCc3ccc(Cl)cc3)cn(C)c2s1)C[C@@H](O)c1ccc(CO)cc1 (single isomer, unassigned) [Example 13]	200

1 = CN(Cc1cc2c(=O)c(C(=O)NCc3ccc(Cl)cc3)cn(C)c2s1)C[C@@H](O)c1cccc(C#N)c1 (single isomer, unassigned) [Example 11]
2 = CN(Cc1cc2c(=O)c(C(=O)NCc3ccc(Cl)cc3)cn(C)c2s1)C[C@@H](O)c1ccc(N(C)C)cc1 (single isomer, unassigned) [Example 12]
// which entry reports the smaller IC50, 1 or 2 ? Indicate which entry you chose by stating its label.
1
(1: 110 nM, 2: 230 nM)

Data provenance is patent US20040116464A1.
